Origin of values: PubChem BioAssay AID179

- Tested on: CEM cells HIV-1 protection, formazan growth assay
- Test method notes: NCI AIDS Antiviral Assay
- Experimental setup: measured here: growth of uninfected CEM cells
- Procedure: The ability of compounds to protect human CEM cells from HIV-1 infection is measured as a screen for new compounds capable of inhibiting the HIV virus. Five concentrations of drug were tested on uninfected and infected cells and cell growth was measured using a soluble formazan assay. […] Compounds that provided at least 50% protection were retested. Compounds that provided at least 50% protection on retest were listed as moderately active. […]
Rule: measured IC50 below 60 µM gets Fulfilled; anything equal to or greater than 60 µM gets Not fulfilled.

Look over these answered cases.
Is 60 µM strictly greater than the compound's reported IC50? compound: `CCC(=O)N1NC(=O)C(CC)(CC)C1=O`
Not fulfilled

Is 60 µM strictly greater than the compound's reported IC50? compound: Fc1ccc(C2=NOC3COC4C=CC=CC4OCC23)cc1 (stereo not given)
Not fulfilled

Is 60 µM strictly greater than the compound's reported IC50? compound: `NC(=O)NC12CC3CC(CC(F)(C3)C1)C2`
Not fulfilled

Is 60 µM strictly greater than the compound's reported IC50? compound: `CN1CC=C(c2c(N)nc(N)[nH]c2=O)CC1`
Not fulfilled

Others:
Is 60 µM strictly greater than the compound's reported IC50? compound: `CN1CCN(C2=Nc3ccccc3Cc3ccccc32)CC1`
Not fulfilled

Is 60 µM strictly greater than the compound's reported IC50? compound: `CC(=O)/C=C/c1cc([N+](=O)[O-])ccc1O`
Fulfilled

Is 60 µM strictly greater than the compound's reported IC50? compound: COC1C=CC(C(=O)[N+]2=Cc3[nH]c4ccccc4c3CC2)O1 (stereo not given)
Not fulfilled

Is 60 µM strictly greater than the compound's reported IC50? compound: `NC1=Nc2ccccc2Sc2ccccc21`
Not fulfilled

Is 60 µM strictly greater than the compound's reported IC50? compound: `CC12c3c4ccc(C=O)c3Oc3ccc(C=O)c(c31)Oc1ccc(C=O)c(c12)O4`
Fulfilled
